src = patent US7998961B2

- Target Of Assay: LpxC enzyme (Escherichia coli, UniProt P0A725)
- Sequence (P0A725 whole entry, species assumed): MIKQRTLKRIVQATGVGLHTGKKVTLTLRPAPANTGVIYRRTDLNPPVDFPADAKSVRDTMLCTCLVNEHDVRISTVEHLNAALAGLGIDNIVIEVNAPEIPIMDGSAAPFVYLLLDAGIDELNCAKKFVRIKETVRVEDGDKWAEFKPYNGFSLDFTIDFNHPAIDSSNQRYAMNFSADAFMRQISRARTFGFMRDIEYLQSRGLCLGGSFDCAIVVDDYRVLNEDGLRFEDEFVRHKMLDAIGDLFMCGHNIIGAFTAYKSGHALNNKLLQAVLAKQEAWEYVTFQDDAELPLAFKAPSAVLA
- Protocol Text: standard LpxC enzyme assay (RapidFire high-throughput mass spectrometry)
- Assay type: biochemical
- Conditions Used: LpxC inhibitory activity; read-out: IC50 rating
- Method: The standard LpxC assay consists of 0.2 nM LpxC enzyme, 1.0 μM UDP-3-O—(R-3-hydroxymyristoyl)-N-acetylglucosamine, and test compound, in assay buffer and 2% DMSO. […] The concentrations of substrate and product in the reaction mixtures are determined with BioTrove's proprietary RapidFire™ high-throughput mass spectrometry (HTMS). […] The mass spectrometry peak areas of the substrate and product are measured to determine the concentration of these analytes. […]
Measured Endpoint: IC50

INSERT INTO measurements (molecule, measured_endpoint, test_value) VALUES
  ('C[C@H](O)[C@@H](NC(=O)c1ccc(C#Cc2ccccc2)cc1)C1NC(=O)NC1=O (some centres unmarked)', 'IC50', '> 5 µM'),
  ('CC1(CC(=O)N2CCC(c3ccc(CCN4CCOCC4)cc3)CC2)NC(=O)NC1=O (centres unmarked)', 'IC50', '> 5 µM'),
  ('CC1(CC(=O)Nc2ccc(C#Cc3ccccc3)cc2)NC(=O)NC1=O (centres unmarked)', 'IC50', '> 5 µM'),
  ('C[C@@H](O)[C@H](NC(=O)c1ccc(C#Cc2ccccc2)cc1)C1NC(=O)NC1=O (some centres unmarked)', 'IC50', '> 5 µM'),
  ('CC1(CC(=O)N2CCC(O)(c3ccc(C#Cc4ccccc4)cc3)CC2)NC(=O)NC1=O (centres unmarked)', 'IC50', '1 to 5 µM'),
  ('CCC1(CC(=O)N2CCC(c3ccc(C#Cc4ccccc4)cc3)CC2)NC(=O)NC1=O (centres unmarked)', 'IC50', '0.25 to 1 µM'),
  ('C#Cc1ccc(C2CCN(C(=O)CC3(C)NC(=O)NC3=O)CC2)cc1 (centres unmarked)', 'IC50', '> 5 µM'),
  ('CC1(CC(=O)N2CCC(c3ccc(-c4ccncc4)cc3)CC2)NC(=O)NC1=O (centres unmarked)', 'IC50', '> 5 µM');
